Reference for the values: the Human Domainome abundance scans (Beltran et al. 2025)

B1: FERM and PDZ domain-containing protein 4, residues 75 to 154; numbered along this chain, Q14CM0 (parent)
chain: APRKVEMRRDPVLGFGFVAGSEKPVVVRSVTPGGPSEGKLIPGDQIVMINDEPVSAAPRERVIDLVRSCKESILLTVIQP

Variants of: B1
procedureDetails: abundance fitness (aPCA) (normalised: wild type 0, dead -1); higher = more abundant; growth selection in yeast, the domain comes from the species named
testSettings: Homo sapiens
What abundance fitness was measured for each of the following?

- mutationCode: "S36R"
  assayValue: -1.07
- mutationCode: "E71H"
  assayValue: -0.081
- mutationCode: "V66F"
  assayValue: -0.056
- mutationCode: "P32T"
  assayValue: -0.036

Lab note: each variant below needs its abundance fitness filled in.
1. R3K
2. T31C
3. I49L
4. V25S
5. M7H
6. L74Y

Key:
1. -0.036
2. -0.108
3. -0.111
4. 0
5. -1.01
6. 0.131
